test: Solubility testing in vehicle, HPLC (Form III)
Format: physicochemical
test_context: oil or lipid, thermodynamic from solid; Oleic acid; 45° C.; 4 h; pH 3.0; loading 15 mg/mL

{"columns": ["smiles_code", "solubility at 4 h"],
 "data": [
  ["C=CC(=O)N1CCC[C@@H](c2c(F)cc(C(N)=O)c3[nH]c4c(c23)CCCCC4)C1", "8500 µg/mL"]
]}

###

test: Solubility testing in vehicle, HPLC (Form III)
Format: physicochemical
test_context: aqueous with cosolvent or surfactant or cyclodextrin, thermodynamic from solid; 10% TPGS; RT; 24 h; pH 5.3; loading 15 mg/mL
Experimental: In each of the following studies (Examples 6-10), the starting material was Compound 1 (free form, not salt) Form III. The material was a light yellow solid, comprising non-hygroscopic irregular shaped crystal with aggregation. The same analytical methods as described in Example 1 were employed. […] Solubility was determined at room temperature for 24 and 72 hours and at 45° C. for 4 and 24 hours. […] The suspensions were filtered or centrifuged, and the filtrate analyzed by HPLC.
metric_name: solubility at 24 h (µg/mL)

{"columns": ["smiles_code", "scale_unit", "number"],
 "data": [
  ["C=CC(=O)N1CCC[C@@H](c2c(F)cc(C(N)=O)c3[nH]c4c(c23)CCCCC4)C1", "µg/mL", 2030]
]}

###

test: Solubility testing in bio-relevant media (Form III)
Type: physicochemical
test_context: thermodynamic from solid; FaSSIF-V2, pH 6.5; 37° C.; 4 h
metric_name: solubility at 4 h (µg/mL)

{"columns": ["compound", "number"],
 "data": [
  ["C=CC(=O)N1CCC[C@@H](c2c(F)cc(C(N)=O)c3[nH]c4c(c23)CCCCC4)C1 [Form III]", 4]
]}

###

test: Solubility testing in aqueous media at various pH (Form III)
Type: physicochemical
test_context: pH 7.4 buffer (KH2PO4/NaOH), aqueous buffer, thermodynamic from solid; pH 7.4 Buffer; RT; 48 h
metric_name: solubility at 48 h (µg/mL)

{"columns": ["smiles_code", "number"],
 "data": [
  ["C=CC(=O)N1CCC[C@@H](c2c(F)cc(C(N)=O)c3[nH]c4c(c23)CCCCC4)C1", 1.7]
]}

###

test: Phase 1 multiple ascending dose plasma pharmacokinetics
Type: in vivo, human
test_context: both sexes, human, plasma, oral, 15 mg, MAD cohort, 15 mg once daily for 10 days, fed; read-out: terminal half-life (converted)
metric_name: half-life

{"columns": ["smiles_code", "result"],
 "data": [
  ["C=CC(=O)N1CCC[C@@H](c2c(F)cc(C(N)=O)c3[nH]c4c(c23)CCCCC4)C1", "~3 h"]
]}

###

test: Phase 1 food effect on pharmacokinetics
Format: in vivo, human
test_context: both sexes, human, plasma, oral, 15 mg, single 15 mg dose; fasting, moderate-fat meal or high-fat high-calorie meal; read-out: mean plasma Tmax
Source text: Cohort 11 is a randomized, 2-treatment, 2-period, 2-sequence, single-dose level food effect evaluation. The formulation used in Cohort 11 is Formulation A. In Treatment Sequence FH, subjects receive Compound 1 in the fasted state on Day 1, and a second dose in the fed state (high-fat, high-calorie meal) on Day 8. In Treatment Sequence HF, subjects receive Compound 1 in the fed state (high-fat, high-calorie meal) on Day 1 and a second dose in the fasted state on Day 8. Days 2-7 are washout days. […]
metric_name: Tmax

{"columns": ["smiles_code", "metric_name", "result"],
 "data": [
  ["C=CC(=O)N1CCC[C@@H](c2c(F)cc(C(N)=O)c3[nH]c4c(c23)CCCCC4)C1", "Tmax", "1 to 2.5 h"]
]}

###

test: Approximate solubility, solvent addition method, visual assessment
Type: physicochemical
test_context: dimethyl sulfoxide (DMSO), organic solvent or mixture, thermodynamic from solid, Dimethyl sulfoxide (DMSO); read-out: Solubility

{"columns": ["smiles_code", "Solubility"],
 "data": [
  ["C=CC(=O)N1CCC[C@@H](c2c(F)cc(C(N)=O)c3[nH]c4c(c23)CCCCC4)C1", "> 250 mg/mL"]
]}

###

test: Approximate solubility, solvent addition method, visual assessment
Assay type: physicochemical
test_context: methanol, organic solvent or mixture, thermodynamic from solid, Methanol; read-out: Solubility

{"columns": ["smiles_code", "Solubility"],
 "data": [
  ["C=CC(=O)N1CCC[C@@H](c2c(F)cc(C(N)=O)c3[nH]c4c(c23)CCCCC4)C1", "~7100 µg/mL"]
]}

###

test: Solubility testing in vehicle, HPLC (Form III)
Type: physicochemical
test_context: oil or lipid, thermodynamic from solid; Capryol 90; RT; 72 h; pH 6.5; loading 50 mg/mL

{"columns": ["smiles_code", "solubility at 72 h"],
 "data": [
  ["C=CC(=O)N1CCC[C@@H](c2c(F)cc(C(N)=O)c3[nH]c4c(c23)CCCCC4)C1", "> 50 mg/mL"]
]}

###

test: Approximate solubility, solvent addition method, visual assessment
Assay type: physicochemical
test_context: ethanol, organic solvent or mixture, thermodynamic from solid, Ethanol; read-out: Solubility

{"columns": ["smiles_code", "Solubility"],
 "data": [
  ["C=CC(=O)N1CCC[C@@H](c2c(F)cc(C(N)=O)c3[nH]c4c(c23)CCCCC4)C1", "~5 mg/mL"]
]}

###

test: Solubility testing in vehicle, HPLC (Form III)
Format: physicochemical
test_context: aqueous with cosolvent or surfactant or cyclodextrin, thermodynamic from solid; 10% HP-B-CD; RT; 24 h; pH 6.7; loading 15 mg/mL
Description: In each of the following studies (Examples 6-10), the starting material was Compound 1 (free form, not salt) Form III. The material was a light yellow solid, comprising non-hygroscopic irregular shaped crystal with aggregation. The same analytical methods as described in Example 1 were employed. […] Solubility was determined at room temperature for 24 and 72 hours and at 45° C. for 4 and 24 hours. […] The suspensions were filtered or centrifuged, and the filtrate analyzed by HPLC.

{"columns": ["smiles_code", "solubility at 24 h"],
 "data": [
  ["C=CC(=O)N1CCC[C@@H](c2c(F)cc(C(N)=O)c3[nH]c4c(c23)CCCCC4)C1", "230 µg/mL"]
]}

###

test: Solubility testing in vehicle, HPLC (Form III)
Assay type: physicochemical
test_context: oil or lipid, thermodynamic from solid; Miglyol 810; RT; 24 h; pH 5.8; loading 15 mg/mL

{"columns": ["compound", "solubility at 24 h [µg/mL]"],
 "data": [
  ["C=CC(=O)N1CCC[C@@H](c2c(F)cc(C(N)=O)c3[nH]c4c(c23)CCCCC4)C1 [Compound 1]", 2160]
]}

###

test: Solubility testing in vehicle, HPLC (Form III)
Type: physicochemical
test_context: aqueous with cosolvent or surfactant or cyclodextrin, thermodynamic from solid; Gelucire 44/14; 45° C.; 4 h; pH 5.7; loading 50 mg/mL

{"columns": ["smiles_code", "solubility at 4 h"],
 "data": [
  ["C=CC(=O)N1CCC[C@@H](c2c(F)cc(C(N)=O)c3[nH]c4c(c23)CCCCC4)C1", "48.1 mg/mL"]
]}

###

test: Phase 1 food effect on pharmacokinetics
Type: in vivo, human
test_context: human, plasma, oral, 15 mg, Cohort 11, 15 mg single dose, High-Fat, mean

{"columns": ["smiles_code", "scale_unit", "Cmax"],
 "data": [
  ["C=CC(=O)N1CCC[C@@H](c2c(F)cc(C(N)=O)c3[nH]c4c(c23)CCCCC4)C1", "ng/mL", 85.5]
]}

###

test: Solubility testing in vehicle, HPLC (Form III)
Assay type: physicochemical
test_context: organic solvent or mixture, thermodynamic from solid; PEG400/TPGS(3/1); 45° C.; 4 h; pH 6.6; loading 50 mg/mL
metric_name: solubility at 4 h

{"columns": ["smiles_code", "result"],
 "data": [
  ["C=CC(=O)N1CCC[C@@H](c2c(F)cc(C(N)=O)c3[nH]c4c(c23)CCCCC4)C1", "> 50 mg/mL"]
]}

###

test: Phase 1 food effect on pharmacokinetics
Assay type: in vivo, human
test_context: human, plasma, oral, 15 mg, Cohorts 2 and 7, 15 mg single dose, Moderate-Fat, median; read-out: Tmax

{"columns": ["smiles_code", "scale_unit", "Tmax"],
 "data": [
  ["C=CC(=O)N1CCC[C@@H](c2c(F)cc(C(N)=O)c3[nH]c4c(c23)CCCCC4)C1", "h", 1.5]
]}

###

test: Phase 1 single ascending dose plasma pharmacokinetics
Type: in vivo, human
test_context: both sexes, human, plasma, oral, 45 mg, Cohort 3, 45 mg single dose, fed, median; read-out: Tmax
metric_name: Tmax (h)

{"columns": ["smiles_code", "metric_name", "number"],
 "data": [
  ["C=CC(=O)N1CCC[C@@H](c2c(F)cc(C(N)=O)c3[nH]c4c(c23)CCCCC4)C1", "Tmax", 1.5]
]}

###

test: Solubility testing in bio-relevant media (Form III)
Format: physicochemical
test_context: thermodynamic from solid; FeSSIF, pH 5.0; 37° C.; 24 h; pH at 24 h 5.0
metric_name: solubility at 24 h (µg/mL)

{"columns": ["compound", "number"],
 "data": [
  ["C=CC(=O)N1CCC[C@@H](c2c(F)cc(C(N)=O)c3[nH]c4c(c23)CCCCC4)C1 [Form III]", 90]
]}

Where these numbers come from: patent US20250243176A1
